# Assayed Target: T1, human ROR1 (full-length, on the cell surface) (human, UniProt Q01973 30-937)
# T1 construct: whole, on cells; the tumour cell lines carry their own ROR1; also called Ba/F3-ROR1 cells; Jeko-1
# T1 sequence (Q01973 30-937): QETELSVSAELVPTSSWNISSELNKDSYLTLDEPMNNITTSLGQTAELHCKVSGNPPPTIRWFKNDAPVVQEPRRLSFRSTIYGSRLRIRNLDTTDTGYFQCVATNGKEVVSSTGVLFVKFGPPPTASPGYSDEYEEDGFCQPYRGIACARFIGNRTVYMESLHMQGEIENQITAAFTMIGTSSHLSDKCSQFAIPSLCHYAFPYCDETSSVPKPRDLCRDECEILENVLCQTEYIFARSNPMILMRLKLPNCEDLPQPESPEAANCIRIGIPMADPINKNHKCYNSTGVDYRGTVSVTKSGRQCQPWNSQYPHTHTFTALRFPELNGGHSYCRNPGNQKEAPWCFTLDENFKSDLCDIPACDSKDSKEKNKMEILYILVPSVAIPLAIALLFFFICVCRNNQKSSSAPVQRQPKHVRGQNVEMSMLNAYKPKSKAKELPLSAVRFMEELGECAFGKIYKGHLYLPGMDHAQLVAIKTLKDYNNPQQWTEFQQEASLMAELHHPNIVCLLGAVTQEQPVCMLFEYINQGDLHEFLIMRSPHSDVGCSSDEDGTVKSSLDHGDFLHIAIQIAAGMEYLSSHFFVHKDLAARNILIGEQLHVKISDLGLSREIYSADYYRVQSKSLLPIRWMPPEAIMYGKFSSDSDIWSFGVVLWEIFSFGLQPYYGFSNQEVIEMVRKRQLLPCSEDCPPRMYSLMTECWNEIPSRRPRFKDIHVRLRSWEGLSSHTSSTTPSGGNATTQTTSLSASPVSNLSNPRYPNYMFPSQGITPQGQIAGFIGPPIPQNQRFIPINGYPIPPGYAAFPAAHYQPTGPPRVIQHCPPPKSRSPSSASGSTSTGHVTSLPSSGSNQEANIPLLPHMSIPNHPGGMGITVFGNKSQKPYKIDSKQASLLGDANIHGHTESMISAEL
# Test Details: flow cytometry, Ba/F3-ROR1 cells
Readout: EC50 (nM)
Your answer is read as nM, so omit the unit and give the number.

// below: answered binders
- Binder: "19F6-Hu15 (antibody, human IgG1, kappa, V domains shown, humanized, human IgG1 / kappa) VH: QVQLQESGPGLVKPSETLSLTCTVTGYSITSDYAWNWIRQPPGKGLEWMGYISYSGSIRYKPSLKDRITISRDTSKNQFSLKLSSVTAADTAVYYCARGEITYYFDYWGQGTLVTVSS VL: ETTLTQSPAFMSATPGDKVTISCKASTDIDDDMNWYQQKPGEPPKLIISEGNTLRPGIPPRFSSSGYGTDFTFTINNIESEDAADYYCLQSNDLPLTFGQGTKLEIKR"
  EC50 (nM): 0.33
- Binder: "19F6-Hu35V4 (antibody, human IgG1, kappa, V domains shown, humanized, human IgG1 / kappa) VH: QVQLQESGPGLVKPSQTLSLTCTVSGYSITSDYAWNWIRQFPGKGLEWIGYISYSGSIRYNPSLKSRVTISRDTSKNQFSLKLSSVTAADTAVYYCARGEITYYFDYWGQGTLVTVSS VL: ETTLTQSPAFMSATPGDKVTISCKASTSIDNDMNWYQQKPGKPPKLIISEGNTLRPGIPPRFSSSGYGTDFTFTINKIESEDAATYYCLQSNDLPLTFGQGTKLEIKR"
  EC50 (nM): 0.28
- Binder: "19F6-Hu32 (antibody, human IgG1, kappa, V domains shown, humanized, human IgG1 / kappa) VH: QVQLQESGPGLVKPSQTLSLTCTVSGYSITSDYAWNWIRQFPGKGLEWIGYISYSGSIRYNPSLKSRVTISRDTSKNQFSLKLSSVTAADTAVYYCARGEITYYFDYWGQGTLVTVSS VL: DIQMTQSPSSLSASVGDRVTITCITTTDIDDDMNWYQQKPGKAPKLLISEGNTLQSGVPSRFSGSGYGTDFTLTISSLQPEDFATYYCLQSNDLPLTFGQGTKLEIKR"
  EC50 (nM): 0.44
- Binder: "19F6-Hu25 (antibody, human IgG1, kappa, V domains shown, humanized, human IgG1 / kappa) VH: QVQLQESGPGLVKPSETLSLTCTVSGYSITSDYAWNWIRQPPGKGLEWMGYISYSGSIRYNPSLKDRITISRDTSKNQFSLKLSSVTAADTAVYYCARGEITYYFDYWGQGTLVTVSS VL: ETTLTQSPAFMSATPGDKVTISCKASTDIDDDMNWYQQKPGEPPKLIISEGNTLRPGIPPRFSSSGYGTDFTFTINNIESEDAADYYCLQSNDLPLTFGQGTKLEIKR"
  EC50 (nM): 0.61

What EC50 value was documented for this binder, 19F6-Hu35V6 (antibody, human IgG1, kappa, V domains shown, humanized, human IgG1 / kappa) VH: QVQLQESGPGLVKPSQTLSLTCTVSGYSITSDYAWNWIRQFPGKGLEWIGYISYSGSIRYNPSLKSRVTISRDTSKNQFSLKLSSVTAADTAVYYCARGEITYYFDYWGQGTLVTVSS VL: ETTLTQSPAFMSATPGDKVTISCKASTDIDNDMNWYQQKPGKPPKLIISEGNTLRPGIPPRFSSSGYGTDFTFTINNIKSEDAATYYCLQSNDLPLTFGQGTKLEIKR ? 0.17

Return reported EC50; argument: 19F6-Hu14 (antibody, human IgG1, kappa, V domains shown, humanized, human IgG1 / kappa) VH: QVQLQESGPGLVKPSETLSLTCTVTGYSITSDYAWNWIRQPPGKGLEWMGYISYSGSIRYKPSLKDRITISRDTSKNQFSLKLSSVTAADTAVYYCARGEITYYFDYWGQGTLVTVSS VL: DIQMTQSPSSLSASVGDRVTITCQTSTDIDDDLNWYQQKPGKPPKLLISEGNTLETGVPSRFSGSGSGTDFTFTISSLQPEDIADYYCLQSNDLPLTFGAGTKLEIKR 0.62
